# study.system: Phosphorylase b kinase gamma catalytic chain, skeletal muscle/heart isoform (Homo sapiens)
# Sequence (Q16816 whole entry, the tested form may be a part, canonical isoform): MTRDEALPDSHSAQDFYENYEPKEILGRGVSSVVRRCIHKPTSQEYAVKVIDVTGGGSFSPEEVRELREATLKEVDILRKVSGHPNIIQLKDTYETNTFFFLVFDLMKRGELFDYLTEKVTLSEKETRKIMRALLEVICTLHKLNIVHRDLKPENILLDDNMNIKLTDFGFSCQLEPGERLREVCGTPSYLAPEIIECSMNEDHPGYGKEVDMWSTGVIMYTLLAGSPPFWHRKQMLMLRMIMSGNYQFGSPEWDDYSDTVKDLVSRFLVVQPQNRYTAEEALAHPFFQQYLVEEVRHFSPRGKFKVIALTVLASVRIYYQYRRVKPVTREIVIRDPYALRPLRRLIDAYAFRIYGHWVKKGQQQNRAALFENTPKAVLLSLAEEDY
# assay.text: Binding affinity to wild-type human full length PHKG1 (M1 to Y387 residues) expressed in bacterial expression system by Kinomescan method relative to control
experimental.endpoint: pKd
One number for each entry, as −log10 of the molar value.

**Query** Which pKd value is on record for "C[C@@H](Nc1ccc2[nH]nc(/C=C/c3ccccn3)c2c1)c1cc(F)cc(F)c1" ?
**Result** 7.92

---

# assay.text: Clearance in Sprague-Dawley rat at 2 mg/kg, iv measured after 24 hrs by LC-MS/MS analysis
# Format: ADME, organism-based
# measurement.context: in vivo
experimental.endpoint: clearance

**Query** Which clearance value is on record for "C[C@@H](Nc1ccc2[nH]nc(/C=C/c3ccccn3)c2c1)c1cc(F)cc(F)c1" ?
**Result** 24 mL/min/kg

---

# study.system: Focal adhesion kinase 1 (Homo sapiens)
# Sequence (Q05397 whole entry): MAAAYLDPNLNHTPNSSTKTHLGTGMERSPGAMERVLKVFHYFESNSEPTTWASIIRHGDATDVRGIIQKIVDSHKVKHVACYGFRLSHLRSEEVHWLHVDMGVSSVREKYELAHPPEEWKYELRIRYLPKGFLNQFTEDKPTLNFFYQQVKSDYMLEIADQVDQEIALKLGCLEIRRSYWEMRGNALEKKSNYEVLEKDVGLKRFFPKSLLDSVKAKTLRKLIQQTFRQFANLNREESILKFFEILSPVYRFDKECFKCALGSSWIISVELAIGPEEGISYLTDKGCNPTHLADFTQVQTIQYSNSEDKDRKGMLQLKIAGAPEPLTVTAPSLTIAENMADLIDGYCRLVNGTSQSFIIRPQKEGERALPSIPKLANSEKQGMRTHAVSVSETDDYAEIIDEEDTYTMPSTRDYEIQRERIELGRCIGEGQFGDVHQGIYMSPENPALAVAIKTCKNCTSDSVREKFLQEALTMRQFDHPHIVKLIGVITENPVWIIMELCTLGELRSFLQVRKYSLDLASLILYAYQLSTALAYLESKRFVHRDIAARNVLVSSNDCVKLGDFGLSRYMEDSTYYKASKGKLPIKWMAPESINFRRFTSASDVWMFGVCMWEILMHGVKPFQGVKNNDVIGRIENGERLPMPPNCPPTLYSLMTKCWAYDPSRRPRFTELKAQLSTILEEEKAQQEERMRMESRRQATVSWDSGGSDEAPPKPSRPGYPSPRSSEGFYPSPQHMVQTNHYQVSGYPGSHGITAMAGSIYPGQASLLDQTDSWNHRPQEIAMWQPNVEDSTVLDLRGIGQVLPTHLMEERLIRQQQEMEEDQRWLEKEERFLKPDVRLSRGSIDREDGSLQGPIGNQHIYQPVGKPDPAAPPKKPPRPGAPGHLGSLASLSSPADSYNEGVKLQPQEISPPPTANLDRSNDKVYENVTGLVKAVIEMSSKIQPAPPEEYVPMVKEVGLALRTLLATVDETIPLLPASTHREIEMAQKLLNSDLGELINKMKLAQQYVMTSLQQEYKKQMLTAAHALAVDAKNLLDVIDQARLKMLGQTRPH
experimental.endpoint: pKd
Give bare numbers, as −log10 of the molar value.

**Query** Which pKd value is on record for "C[C@@H](Nc1ccc2[nH]nc(/C=C/c3ccccn3)c2c1)c1cc(F)cc(F)c1" ?
**Result** 6.70

---

# assay.text: AUC (0 to infinity) in Sprague-Dawley rat at 2 mg/kg, iv measured after 24 hrs by LC-MS/MS analysis
# Type: ADME, organism-based
# Set-up: route intravenous, dose 2 mg/kg, time 24 hrs
# measurement.context: in vivo
experimental.endpoint: AUC(0-inf) (µM·h)
One number for each entry, in µM·h.

**Query** Which AUC(0-inf) value is on record for "C[C@@H](Nc1ccc2[nH]nc(/C=C/c3ccccn3)c2c1)c1cc(F)cc(F)c1" ?
**Result** 3.69

---

# study.system: Fibroblast growth factor receptor 1 (Homo sapiens)
# Sequence (P11362 whole entry): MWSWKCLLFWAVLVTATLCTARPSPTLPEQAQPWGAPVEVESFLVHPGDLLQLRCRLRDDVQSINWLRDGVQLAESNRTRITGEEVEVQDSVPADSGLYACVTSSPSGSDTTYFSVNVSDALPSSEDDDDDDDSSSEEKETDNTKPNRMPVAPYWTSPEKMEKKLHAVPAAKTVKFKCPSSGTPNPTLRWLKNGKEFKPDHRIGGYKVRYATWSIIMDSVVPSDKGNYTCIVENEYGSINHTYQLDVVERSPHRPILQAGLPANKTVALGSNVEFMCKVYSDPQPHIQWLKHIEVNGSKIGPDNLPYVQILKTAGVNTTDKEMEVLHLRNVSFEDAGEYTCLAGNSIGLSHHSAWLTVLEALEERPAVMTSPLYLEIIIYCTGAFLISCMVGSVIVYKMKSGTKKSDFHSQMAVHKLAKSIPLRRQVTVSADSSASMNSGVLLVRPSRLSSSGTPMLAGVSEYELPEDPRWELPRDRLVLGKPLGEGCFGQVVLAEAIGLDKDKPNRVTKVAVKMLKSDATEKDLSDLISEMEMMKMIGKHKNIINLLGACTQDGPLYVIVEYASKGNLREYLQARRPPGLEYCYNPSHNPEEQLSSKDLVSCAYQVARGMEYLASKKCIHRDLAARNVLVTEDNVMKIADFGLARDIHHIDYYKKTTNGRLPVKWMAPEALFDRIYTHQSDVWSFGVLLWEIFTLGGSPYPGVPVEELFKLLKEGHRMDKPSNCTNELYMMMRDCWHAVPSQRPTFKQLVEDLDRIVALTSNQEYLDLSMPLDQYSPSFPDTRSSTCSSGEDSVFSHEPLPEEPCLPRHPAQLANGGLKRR
experimental.endpoint: Kd (µM)
Numbers only, in µM.

**Query** Record lookup: for Fibroblast growth factor receptor 1 (Homo sapiens), what Kd belongs to "C[C@@H](Nc1ccc2[nH]nc(/C=C/c3ccccn3)c2c1)c1cc(F)cc(F)c1" ?
**Result** 0.076

---

# Test system: BaF3
# assay.text: Antiproliferative activity against mouse BaF3 cells transfected with wild type ETV6-NTRK3 (unknown origin) harbouring G696A mutation assessed as cell viability measured after 72 hrs by Micro plate reader method
# Type: functional, cell-based
# measurement.context: BaF3, 72 h
experimental.endpoint: IC50 (nM)
Give bare numbers, in nM.

**Query** Record lookup: for BaF3, what IC50 belongs to "O=C(Nc1cnn2ccc(N3CCC[C@@H]3c3cc(F)ccc3F)nc12)N1CC[C@H](O)C1" ?
**Result** 54

---

# Test system: BaF3
# assay.text: Antiproliferative activity against mouse BaF3 cells transfected with wild type ETV6-NTRK2 (unknown origin) assessed as cell viability measured after 72 hrs by Micro plate reader method
# measurement.context: BaF3, 72 h
For each of the compounds below, state its IC50.
Answers are plain numbers, in nM.

Worked cases, IC50 given:
smiles_representation=C[C@@H](Nc1ccc2[nH]nc(/C=C/c3ccccn3)c2c1)c1cc(F)cc(F)c1 study_system=BaF3 experimental_endpoint=IC50 value_unit=nM assay_value=22
smiles_representation=Fc1cc(F)cc(COc2ccc3[nH]nc(/C=C/c4ccccn4)c3c2)c1 study_system=BaF3 experimental_endpoint=IC50 value_unit=nM assay_value=169
smiles_representation=Fc1cc(F)cc(CNc2ccc3[nH]nc(/C=C/c4ccccn4)c3c2)c1 study_system=BaF3 experimental_endpoint=IC50 value_unit=nM assay_value=34
smiles_representation=Fc1cc(F)cc(Cc2ccc3[nH]nc(/C=C/c4ccccn4)c3c2)c1 study_system=BaF3 experimental_endpoint=IC50 value_unit=nM assay_value=161

Turning now to a further compound:
**Query** Which IC50 value is on record for "O=C(Nc1cnn2ccc(N3CCC[C@@H]3c3cc(F)ccc3F)nc12)N1CC[C@H](O)C1" ?
**Result** 40
